TARGET UNDER TEST: Phosphodiesterase 4 (Homo sapiens, UniProt P27815+Q08499+Q07343+Q08493)
PROTOCOL NOTES: PDE4 30 assay to measure the percent rolipram activity of the PDE4 assay at 30 micro M concentration of the compound.
Assay type: protein assay
PROPERTY LABEL: PDE4 inhibition relative to rolipram (%)
Give bare numbers, in %.

The cases that follow already have their PDE4 inhibition relative to rolipram on record.
>>> recorded_measurement("CCCCCCCCn1c(=O)c2c(ncn2S(=O)(=O)c2ccc(OC)c(OC)c2)n(CCCC)c1=O")
0
>>> recorded_measurement("CCCCn1c(=O)c2c(nc(C)n2S(=O)(=O)c2cccc([N+](=O)[O-])c2)n(CCCC)c1=O")
85
>>> recorded_measurement("CCCCn1c(=O)c2c(ncn2S(=O)(=O)c2c(C)cc(C)cc2C)n(CCCC)c1=O")
58
>>> recorded_measurement("CCCCn1c(=O)c2c(ncn2S(=O)(=O)c2cccs2)n(CCCC)c1=O")
48
>>> recorded_measurement("CCCCn1c(=O)n(CCC(C)C)c(=O)c2c1ncn2S(=O)(=O)c1ccc(OC)c(OC)c1")
86

Report PDE4 inhibition relative to rolipram for every entry below.
1. CCCCn1c(=O)[nH]c(=O)c2c1ncn2S(=O)(=O)c1ccc(OC)c(OC)c1
2. CCCCn1c(=O)n(CC2CC2)c(=O)c2c1ncn2S(=O)(=O)c1ccc(OC)c(OC)c1
3. CCCCn1c(=O)c2c(ncn2S(=O)(=O)Cc2ccccc2)n(CCCC)c1=O

1. 25
2. 97
3. 7
